- experimental_target: Amine oxidase [flavin-containing] B (Homo sapiens)
- Sequence (P27338 whole entry): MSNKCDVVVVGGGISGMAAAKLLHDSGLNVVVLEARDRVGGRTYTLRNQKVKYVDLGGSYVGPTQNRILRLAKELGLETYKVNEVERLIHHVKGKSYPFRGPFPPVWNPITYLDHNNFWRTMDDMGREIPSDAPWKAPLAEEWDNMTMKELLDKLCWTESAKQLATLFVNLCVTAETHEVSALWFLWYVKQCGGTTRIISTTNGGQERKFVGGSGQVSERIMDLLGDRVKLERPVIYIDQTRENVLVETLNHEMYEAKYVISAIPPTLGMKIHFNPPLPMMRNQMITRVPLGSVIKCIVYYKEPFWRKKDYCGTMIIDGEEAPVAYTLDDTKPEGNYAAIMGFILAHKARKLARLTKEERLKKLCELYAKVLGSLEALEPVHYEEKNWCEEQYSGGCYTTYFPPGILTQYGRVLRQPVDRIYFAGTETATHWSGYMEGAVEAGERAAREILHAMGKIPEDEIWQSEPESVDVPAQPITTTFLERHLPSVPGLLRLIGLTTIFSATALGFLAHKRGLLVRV
- test_summary: Inhibition of recombinant human MAO-B expressed in insect cells assessed as inhibition of oxidation of kynuramine to 4-hydroxyquinoline after 20 mins by fluorescence spectrophotometry
- condition_parameters: read-out: IC50
test_readout: IC50 (µM)

I = CC1=C(/C=N/NC(N)=O)C(C)(C)CC=C1
II = CC1=C(/C=N/N=C2\SCC(=O)N2Cc2ccccc2)C(C)(C)CC=C1
Just tell me: smaller IC50 value, I or II ? Returns: label corresponding to the selected item.
I
(I: 111 µM, II: 215 µM)

====

- experimental_target: Amine oxidase [flavin-containing] A (Homo sapiens, UniProt P21397)
- Sequence (P21397 whole entry): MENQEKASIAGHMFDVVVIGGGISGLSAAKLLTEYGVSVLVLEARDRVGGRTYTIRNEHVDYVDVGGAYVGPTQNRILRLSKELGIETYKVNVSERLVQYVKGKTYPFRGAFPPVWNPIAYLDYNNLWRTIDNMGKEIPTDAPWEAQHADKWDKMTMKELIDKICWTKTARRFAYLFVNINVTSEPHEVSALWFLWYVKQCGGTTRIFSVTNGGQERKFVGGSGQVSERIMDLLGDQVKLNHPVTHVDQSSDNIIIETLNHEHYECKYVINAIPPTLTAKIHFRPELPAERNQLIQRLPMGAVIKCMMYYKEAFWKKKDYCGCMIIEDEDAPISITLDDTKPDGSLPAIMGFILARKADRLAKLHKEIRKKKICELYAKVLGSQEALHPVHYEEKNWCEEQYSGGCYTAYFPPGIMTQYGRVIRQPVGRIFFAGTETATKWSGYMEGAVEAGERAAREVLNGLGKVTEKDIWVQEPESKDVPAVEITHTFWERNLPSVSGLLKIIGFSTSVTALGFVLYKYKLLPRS
- test_summary: Inhibition of recombinant human MAO-A expressed in insect cells assessed as inhibition of oxidation of kynuramine to 4-hydroxyquinoline after 20 mins by fluorescence spectrophotometry
- condition_parameters: read-out: IC50
pIC50: −log10 of the molar value.
test_readout: pIC50

molecule	test_value
CC1=C(/C=N/NC(N)=S)C(C)(C)CC=C1	4.25
CC1=C(/C=N/N=C2/NC(=O)CS2)C(C)(C)CC=C1	3.88
CC(/C=C/C=C(\C)C(=O)O[C@@H]1O[C@H](CO[C@@H]2O[C@H](CO)[C@@H](O)[C@H](O)[C@H]2O)[C@@H](O)[C@H](O)[C@H]1O)=C\C=C\C=C(C)\C=C\C=C(/C)C(=O)O[C@@H]1O[C@H](CO[C@@H]2O[C@H](CO)[C@@H](O)[C@H](O)[C@H]2O)[C@@H](O)[C@H](O)[C@H]1O [CROCIN]	3.77
CC1=C(/C=N/N(C)C(N)=S)C(C)(C)CC=C1	4.03

A = CC1=C(/C=N/N=C2\SCC(=O)N2Cc2ccccc2)C(C)(C)CC=C1
B = CC1=C(/C=N/NC(=S)Nc2ccccc2)C(C)(C)CC=C1
C = CC1=C(/C=N/Nc2nc(-c3cccc([N+](=O)[O-])c3)cs2)C(C)(C)CC=C1
D = CC1=C(/C=N/NC(N)=O)C(C)(C)CC=C1
# rank_down: sort by pIC50, max first Write the labels in rank order as requested.
C, B, A, D

====

- experimental_target: Amine oxidase [flavin-containing] B (Homo sapiens)
- test_summary: Inhibition of recombinant human MAO-B expressed in insect cells assessed as inhibition of oxidation of kynuramine to 4-hydroxyquinoline after 20 mins by fluorescence spectrophotometry
- condition_parameters: read-out: IC50
test_readout: IC50 (µM)

Check out these entries, answers already filled in.
compound	unit	IC50
CC1=C(/C=N/N(C)C(N)=S)C(C)(C)CC=C1	µM	117
CC1=C(/C=N/N=C2/NC(=O)CS2)C(C)(C)CC=C1	µM	168
CC1=C(/C=N/NC(=S)Nc2ccccc2)C(C)(C)CC=C1	µM	224
CC(/C=C/C=C(\C)C(=O)O[C@@H]1O[C@H](CO[C@@H]2O[C@H](CO)[C@@H](O)[C@H](O)[C@H]2O)[C@@H](O)[C@H](O)[C@H]1O)=C\C=C\C=C(C)\C=C\C=C(/C)C(=O)O[C@@H]1O[C@H](CO[C@@H]2O[C@H](CO)[C@@H](O)[C@H](O)[C@H]2O)[C@@H](O)[C@H](O)[C@H]1O [CROCIN]	µM	128

P = CC1=C(/C=N/NC(N)=S)C(C)(C)CC=C1
Q = CC1=C(/C=N/Nc2nc(-c3cccc([N+](=O)[O-])c3)cs2)C(C)(C)CC=C1
Just tell me: smaller IC50 value, P or Q ? Returns: label corresponding to the selected item.
Q
